assay: Rat amphetamine-induced hyperlocomotion (AHL) with satellite PK; assay type: in vivo; conditions: male, Sprague-Dawley, brain (unbound); rat PO 10 mg/kg, satellite PK, 2.5 h end of study (picture: sample @ 1.25 hr); read-out: free (unbound) brain concentration at 10 mg/kg

- mol smiles: "Cc1nc(C2CC2)ccc1CNC(=O)c1cc(-n2cccn2)ccc1Cl"
  concentration at 2.5 h (nM): 79.8

----------
experiment: Kinetic solubility; format: physicochemical; conditions: pH 2.2, aqueous buffer, kinetic from dmso stock; read-out: Kinetic solubility pH 2.2

- mol smiles: "Cc1nc(C2CC2)ccc1CNC(=O)c1cc(-n2cccn2)ccc1Cl"
  solubility kinetic: "> 100 µM"

----------
test: Plasma protein binding (dog); assay type: in vitro ADME; conditions: pH 7.4, read-out: fu plasma (d)
measured attribute: fraction unbound at 4 h, 5 µM

- mol smiles: "Cc1nc(C2CC2)ccc1CNC(=O)c1cc(-n2cccn2)ccc1Cl"
  reported result: 0.099

----------
assay: Plasma protein binding, equilibrium dialysis (human); format: in vitro ADME; details: pH 7.4, human plasma, read-out: fu plasma (h)
measured attribute: fraction unbound at 4 h, 5 µM

- molecule: "Cn1nc(-c2ccnn2C)cc1CNC(=O)c1cc(-n2cccn2)ccc1Cl [compound 5]"
  measured attribute: "fraction unbound at 4 h, 5 µM"
  reported result: 0.143
- molecule: "Cn1cc(-c2cc(CNC(=O)c3cc(-c4ccco4)ccc3Cl)n(C)n2)cn1 [compound 4]"
  measured attribute: "fraction unbound at 4 h, 5 µM"
  reported result: 0.063
- molecule: "Cc1nc2ccccc2cc1CNC(=O)c1cc(-n2cccn2)ccc1Cl [compound 6]"
  measured attribute: "fraction unbound at 4 h, 5 µM"
  reported result: 0.037
- molecule: "Cc1nc(C2CC2)ccc1CNC(=O)c1cc(-n2cccn2)ccc1Cl [compound 8]"
  measured attribute: "fraction unbound at 4 h, 5 µM"
  reported result: 0.063
- molecule: "Cc1nc2c(F)cccc2cc1CNC(=O)c1cc(-n2cccn2)ccc1Cl [compound 7]"
  measured attribute: "fraction unbound at 4 h, 5 µM"
  reported result: 0.053

----------
assay: Single IV bolus PK and tolerability in male beagle dogs; type: in vivo; details: plasma; male beagle dog, 0.5 mg/kg IV bolus; read-out: Vss (dog)

- mol smiles: "Cc1nc(C2CC2)ccc1CNC(=O)c1cc(-n2cccn2)ccc1Cl"
  unit string: "L/kg"
  Vd: 4.6

----------
test: Three-day dose escalation toxicology study in mice; format: in vivo, mouse; conditions: in vivo; mouse, three-day, 50 mg/kg; read-out: AUCss at 50 mg/kg

- mol smiles: "Cc1nc(C2CC2)ccc1CNC(=O)c1cc(-n2cccn2)ccc1Cl"
  AUC at 3 day, µM·h: 5.5

----------
target: mouse mGlu1 (Mus musculus); experiment: mGlu1 PAM functional assay (mouse)
Sequence (P97772 19-1199 limits assumed): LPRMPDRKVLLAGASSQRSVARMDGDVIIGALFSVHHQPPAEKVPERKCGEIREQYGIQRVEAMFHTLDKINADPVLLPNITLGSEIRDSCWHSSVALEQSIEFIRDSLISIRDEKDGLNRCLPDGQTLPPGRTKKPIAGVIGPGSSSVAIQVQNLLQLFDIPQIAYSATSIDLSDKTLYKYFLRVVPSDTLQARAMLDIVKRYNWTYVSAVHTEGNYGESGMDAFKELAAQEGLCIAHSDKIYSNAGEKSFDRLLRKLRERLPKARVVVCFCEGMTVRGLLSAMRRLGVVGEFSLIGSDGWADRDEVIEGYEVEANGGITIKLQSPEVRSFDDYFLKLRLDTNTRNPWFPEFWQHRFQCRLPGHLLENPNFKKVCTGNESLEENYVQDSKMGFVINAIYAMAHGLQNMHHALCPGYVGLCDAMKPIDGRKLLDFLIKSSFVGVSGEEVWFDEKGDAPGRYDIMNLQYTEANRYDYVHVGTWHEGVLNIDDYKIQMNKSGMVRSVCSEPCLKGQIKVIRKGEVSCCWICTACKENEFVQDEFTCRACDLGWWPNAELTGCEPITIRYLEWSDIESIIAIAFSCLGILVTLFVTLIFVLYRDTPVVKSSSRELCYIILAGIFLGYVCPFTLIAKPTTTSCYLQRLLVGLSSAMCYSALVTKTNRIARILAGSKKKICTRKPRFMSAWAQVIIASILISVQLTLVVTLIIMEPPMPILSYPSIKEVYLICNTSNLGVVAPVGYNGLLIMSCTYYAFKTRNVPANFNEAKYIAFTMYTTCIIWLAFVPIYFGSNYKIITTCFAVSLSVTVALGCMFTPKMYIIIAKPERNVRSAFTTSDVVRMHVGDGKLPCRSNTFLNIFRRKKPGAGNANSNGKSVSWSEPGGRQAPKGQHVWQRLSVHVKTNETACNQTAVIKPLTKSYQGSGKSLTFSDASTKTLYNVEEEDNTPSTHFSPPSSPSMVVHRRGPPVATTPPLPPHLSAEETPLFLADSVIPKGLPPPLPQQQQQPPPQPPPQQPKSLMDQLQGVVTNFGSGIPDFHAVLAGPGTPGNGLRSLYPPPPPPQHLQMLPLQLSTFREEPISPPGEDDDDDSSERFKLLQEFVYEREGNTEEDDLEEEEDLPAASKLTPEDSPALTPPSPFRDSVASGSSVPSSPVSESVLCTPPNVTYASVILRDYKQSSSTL

- mol smiles: "Cc1nc(C2CC2)ccc1CNC(=O)c1cc(-n2cccn2)ccc1Cl"
  unit string: "nM"
  EC50: 52

----------
target: P-gp (Homo sapiens, UniProt P08183); construct: expressed in transfected cells; host or cells: MDCK-MDR1; experiment: MDCK-MDR1 efflux and permeability; format: in vitro ADME; settings: dog, MDCK-MDR1
Sequence (P08183 whole entry): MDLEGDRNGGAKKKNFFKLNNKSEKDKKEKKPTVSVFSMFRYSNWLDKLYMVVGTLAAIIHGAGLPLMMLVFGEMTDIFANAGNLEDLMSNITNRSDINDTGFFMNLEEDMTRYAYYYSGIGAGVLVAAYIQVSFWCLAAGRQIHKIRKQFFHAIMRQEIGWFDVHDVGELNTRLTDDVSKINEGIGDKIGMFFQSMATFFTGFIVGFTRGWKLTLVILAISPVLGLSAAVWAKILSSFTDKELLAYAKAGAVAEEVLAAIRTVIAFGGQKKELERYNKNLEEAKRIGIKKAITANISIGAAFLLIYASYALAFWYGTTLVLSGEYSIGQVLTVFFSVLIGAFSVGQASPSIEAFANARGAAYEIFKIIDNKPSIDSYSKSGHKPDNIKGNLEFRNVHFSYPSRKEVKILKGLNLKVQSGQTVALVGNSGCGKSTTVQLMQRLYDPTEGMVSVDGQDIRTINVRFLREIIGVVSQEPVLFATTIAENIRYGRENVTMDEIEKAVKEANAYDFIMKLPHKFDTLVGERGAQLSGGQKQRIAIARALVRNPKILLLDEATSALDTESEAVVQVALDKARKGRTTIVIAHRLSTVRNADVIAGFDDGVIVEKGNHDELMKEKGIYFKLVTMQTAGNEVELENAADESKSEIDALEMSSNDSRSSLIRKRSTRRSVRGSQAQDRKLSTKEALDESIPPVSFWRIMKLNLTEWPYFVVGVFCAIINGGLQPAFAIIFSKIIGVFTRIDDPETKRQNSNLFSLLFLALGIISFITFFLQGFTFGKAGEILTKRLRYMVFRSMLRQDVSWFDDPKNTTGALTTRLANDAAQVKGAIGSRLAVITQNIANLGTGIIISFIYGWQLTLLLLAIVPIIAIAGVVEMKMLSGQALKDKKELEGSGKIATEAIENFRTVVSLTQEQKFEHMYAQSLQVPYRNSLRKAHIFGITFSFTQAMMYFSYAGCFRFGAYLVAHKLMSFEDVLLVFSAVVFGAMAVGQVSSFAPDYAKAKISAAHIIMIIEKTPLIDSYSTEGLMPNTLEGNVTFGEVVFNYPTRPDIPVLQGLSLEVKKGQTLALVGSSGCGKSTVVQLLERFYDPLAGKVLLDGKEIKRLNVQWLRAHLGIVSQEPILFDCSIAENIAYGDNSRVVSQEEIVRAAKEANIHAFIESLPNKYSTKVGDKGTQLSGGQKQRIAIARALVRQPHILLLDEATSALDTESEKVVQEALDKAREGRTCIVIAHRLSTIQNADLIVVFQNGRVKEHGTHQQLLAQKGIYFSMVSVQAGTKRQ
Catalogue of Papp readings, one per entry.

- mol smiles: "Cc1nc(C2CC2)ccc1CNC(=O)c1cc(-n2cccn2)ccc1Cl"
  unit string: "×10⁻⁶ cm/s"
  Papp: 42
- mol smiles: "Cc1nc2ccccc2cc1CNC(=O)c1cc(-n2cccn2)ccc1Cl"
  unit string: "×10⁻⁶ cm/s"
  Papp: 39

----------
Catalogue of pEC50 readings, one per entry.
target: human mGlu1 (Homo sapiens, UniProt Q13255); construct: expressed in transfected cells; pcDNA5/TO); test: mGlu1 PAM calcium mobilization assay (human); type: cell-based
Sequence (Q13255 19-1194): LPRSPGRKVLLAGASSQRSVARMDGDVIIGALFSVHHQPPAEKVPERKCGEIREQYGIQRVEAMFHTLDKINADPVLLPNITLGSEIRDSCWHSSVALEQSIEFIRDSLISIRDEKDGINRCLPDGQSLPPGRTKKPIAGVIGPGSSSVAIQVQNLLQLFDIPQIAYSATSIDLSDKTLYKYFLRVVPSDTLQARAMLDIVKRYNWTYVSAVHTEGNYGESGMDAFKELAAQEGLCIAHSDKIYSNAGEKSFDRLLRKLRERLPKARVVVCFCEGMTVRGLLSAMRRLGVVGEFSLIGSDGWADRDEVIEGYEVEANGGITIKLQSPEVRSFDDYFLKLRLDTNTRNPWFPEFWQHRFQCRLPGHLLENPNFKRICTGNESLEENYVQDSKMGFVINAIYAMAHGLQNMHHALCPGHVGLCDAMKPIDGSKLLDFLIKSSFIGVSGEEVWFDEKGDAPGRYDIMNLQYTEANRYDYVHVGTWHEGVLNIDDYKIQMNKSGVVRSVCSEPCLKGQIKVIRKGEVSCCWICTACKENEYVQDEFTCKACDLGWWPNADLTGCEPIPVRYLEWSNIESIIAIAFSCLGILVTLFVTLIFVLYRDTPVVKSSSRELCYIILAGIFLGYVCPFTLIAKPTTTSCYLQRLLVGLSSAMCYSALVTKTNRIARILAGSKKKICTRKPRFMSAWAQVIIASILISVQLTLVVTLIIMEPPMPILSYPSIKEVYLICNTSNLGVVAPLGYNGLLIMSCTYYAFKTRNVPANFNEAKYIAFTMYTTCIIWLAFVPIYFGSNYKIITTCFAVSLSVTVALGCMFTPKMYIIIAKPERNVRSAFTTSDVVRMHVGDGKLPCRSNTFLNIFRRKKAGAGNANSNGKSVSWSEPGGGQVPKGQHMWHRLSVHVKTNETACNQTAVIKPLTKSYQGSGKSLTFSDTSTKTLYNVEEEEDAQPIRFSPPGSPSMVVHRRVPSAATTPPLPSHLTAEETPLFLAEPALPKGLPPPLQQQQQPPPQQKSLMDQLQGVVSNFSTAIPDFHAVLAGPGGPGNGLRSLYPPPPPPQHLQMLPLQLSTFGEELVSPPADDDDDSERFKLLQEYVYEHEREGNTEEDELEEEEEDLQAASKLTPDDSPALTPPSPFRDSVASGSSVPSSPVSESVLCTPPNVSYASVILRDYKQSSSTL
pEC50: −log10 of the molar value.

- mol smiles: "Cc1nc2ccccc2cc1CNC(=O)c1cc(-n2cccn2)ccc1Cl"
  pEC50: 7.49
- mol smiles: "Cn1cc(-c2cc(CNC(=O)c3cc(-c4ccco4)ccc3Cl)n(C)n2)cn1"
  pEC50: 7.55
- mol smiles: "Cc1nc(C2CC2)ccc1CNC(=O)c1cc(-n2cccn2)ccc1Cl"
  pEC50: 7.41
- mol smiles: "Cc1nc2c(F)cccc2cc1CNC(=O)c1cc(-n2cccn2)ccc1Cl"
  pEC50: 7.77

----------
Catalogue of pIC50 readings, one per entry.
Molecular target: CYP450 1A2 (Homo sapiens)
Sequence (P05177 1-516): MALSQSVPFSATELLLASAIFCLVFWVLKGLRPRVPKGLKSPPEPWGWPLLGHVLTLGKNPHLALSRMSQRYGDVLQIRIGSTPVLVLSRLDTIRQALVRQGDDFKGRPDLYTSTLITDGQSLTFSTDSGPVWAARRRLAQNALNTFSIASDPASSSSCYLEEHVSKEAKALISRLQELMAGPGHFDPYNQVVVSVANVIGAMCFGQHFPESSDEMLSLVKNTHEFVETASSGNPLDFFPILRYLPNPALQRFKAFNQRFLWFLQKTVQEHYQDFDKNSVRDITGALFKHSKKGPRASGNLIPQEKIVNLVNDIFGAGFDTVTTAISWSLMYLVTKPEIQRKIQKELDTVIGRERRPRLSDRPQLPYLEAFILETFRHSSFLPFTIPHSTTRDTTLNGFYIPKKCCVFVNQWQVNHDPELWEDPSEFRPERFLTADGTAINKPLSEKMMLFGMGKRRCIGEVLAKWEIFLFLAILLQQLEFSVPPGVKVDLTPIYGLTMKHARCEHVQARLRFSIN
pIC50: −log10 of the molar value.

- compound: "Cc1nc2c(F)cccc2cc1CNC(=O)c1cc(-n2cccn2)ccc1Cl [compound 7]"
  sign qualifier: "="
  pIC50: 4.95
- compound: "Cn1cc(-c2cc(CNC(=O)c3cc(-c4ccco4)ccc3Cl)n(C)n2)cn1 [compound 4]"
  sign qualifier: "="
  pIC50: 4.83
- compound: "Cc1nc2ccccc2cc1CNC(=O)c1cc(-n2cccn2)ccc1Cl [compound 6]"
  sign qualifier: "="
  pIC50: 4.80
- compound: "Cn1nc(-c2ccnn2C)cc1CNC(=O)c1cc(-n2cccn2)ccc1Cl [compound 5]"
  sign qualifier: "<"
  pIC50: 4.52
- compound: "Cc1nc(C2CC2)ccc1CNC(=O)c1cc(-n2cccn2)ccc1Cl [compound 8]"
  sign qualifier: "="
  pIC50: 4.59

----------
target: CYP450 2D6 (Homo sapiens); construct: 0.1 mg/mL human liver microsomes (HLM); from tissue; host or cells: human liver microsomes; experiment: Inhibition of cytochrome P450 enzymes in human liver microsomes, 2D6; assay type: in vitro ADME
Sequence (P10635 whole entry): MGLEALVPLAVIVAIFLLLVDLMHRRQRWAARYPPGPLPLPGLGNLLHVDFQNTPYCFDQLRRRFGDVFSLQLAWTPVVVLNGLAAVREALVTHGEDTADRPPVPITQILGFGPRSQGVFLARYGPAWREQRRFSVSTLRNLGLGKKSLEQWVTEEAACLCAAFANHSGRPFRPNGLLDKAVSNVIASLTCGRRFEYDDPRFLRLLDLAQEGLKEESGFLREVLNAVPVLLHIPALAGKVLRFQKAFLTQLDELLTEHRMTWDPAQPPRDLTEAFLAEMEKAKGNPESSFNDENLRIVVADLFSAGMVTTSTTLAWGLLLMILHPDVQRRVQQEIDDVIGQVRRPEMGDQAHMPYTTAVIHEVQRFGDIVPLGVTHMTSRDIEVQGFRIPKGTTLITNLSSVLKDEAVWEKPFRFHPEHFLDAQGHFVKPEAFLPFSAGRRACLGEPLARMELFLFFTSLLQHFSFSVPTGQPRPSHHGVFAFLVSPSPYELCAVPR
measured attribute: IC50

- compound: "Cc1nc(C2CC2)ccc1CNC(=O)c1cc(-n2cccn2)ccc1Cl [compound 8]"
  reported result: "> 30 µM"
- compound: "Cc1nc2c(F)cccc2cc1CNC(=O)c1cc(-n2cccn2)ccc1Cl [compound 7]"
  reported result: "> 30 µM"
- compound: "Cn1nc(-c2ccnn2C)cc1CNC(=O)c1cc(-n2cccn2)ccc1Cl [compound 5]"
  reported result: "> 30 µM"
- compound: "Cn1cc(-c2cc(CNC(=O)c3cc(-c4ccco4)ccc3Cl)n(C)n2)cn1 [compound 4]"
  reported result: "> 30 µM"
- compound: "Cc1nc2ccccc2cc1CNC(=O)c1cc(-n2cccn2)ccc1Cl [compound 6]"
  reported result: "6.9 µM"

----------
test: Predicted hepatic clearance from hepatic microsomes (human); assay type: in vitro ADME
measured attribute: Predicted CLhep (h) (mL/min/kg)

- mol smiles: "Cc1nc2c(F)cccc2cc1CNC(=O)c1cc(-n2cccn2)ccc1Cl"
  reported result: 13.3
- mol smiles: "Cn1nc(-c2ccnn2C)cc1CNC(=O)c1cc(-n2cccn2)ccc1Cl"
  reported result: 4.6
- mol smiles: "Cc1nc2ccccc2cc1CNC(=O)c1cc(-n2cccn2)ccc1Cl"
  reported result: 15.8
- mol smiles: "Cn1cc(-c2cc(CNC(=O)c3cc(-c4ccco4)ccc3Cl)n(C)n2)cn1"
  reported result: 15.1
- mol smiles: "Cc1nc(C2CC2)ccc1CNC(=O)c1cc(-n2cccn2)ccc1Cl"
  reported result: 9.9

----------
assay: Three-day dose escalation toxicology study in mice; type: in vivo, mouse; conditions: in vivo; mouse, three-day, high-dose group (printed 500 mg/kg); read-out: AUCss in high-dose group
measured attribute: AUC at 3 day (µM·h)

- mol smiles: "Cc1nc(C2CC2)ccc1CNC(=O)c1cc(-n2cccn2)ccc1Cl"
  reported result: 208

----------
assay: Single IV bolus PK and tolerability in male beagle dogs; format: in vivo; details: plasma; male beagle dog, 0.5 mg/kg IV bolus; read-out: t1/2 (dog) (converted)

- molecule: "Cc1nc(C2CC2)ccc1CNC(=O)c1cc(-n2cccn2)ccc1Cl [compound 8]"
  half-life [h]: 6.5

----------
experiment: Rat amphetamine-induced hyperlocomotion (AHL) with satellite PK; type: in vivo; details: male, Sprague-Dawley, brain (unbound); rat PO 1 mg/kg, sample @ 1.25 hr; read-out: Brain Unbound at 1 mg/kg

- compound: "Cc1nc(C2CC2)ccc1CNC(=O)c1cc(-n2cccn2)ccc1Cl [compound 8]"
  concentration at 1.25 h (nM): 16.1
